Kindly supply the reported SDR Ave Max Response values for the records listed here.
assayedSystem: ABL1-N-HiBiT kinase domain (Homo sapiens, UniProt P00519)
Sequence (P00519 233-500): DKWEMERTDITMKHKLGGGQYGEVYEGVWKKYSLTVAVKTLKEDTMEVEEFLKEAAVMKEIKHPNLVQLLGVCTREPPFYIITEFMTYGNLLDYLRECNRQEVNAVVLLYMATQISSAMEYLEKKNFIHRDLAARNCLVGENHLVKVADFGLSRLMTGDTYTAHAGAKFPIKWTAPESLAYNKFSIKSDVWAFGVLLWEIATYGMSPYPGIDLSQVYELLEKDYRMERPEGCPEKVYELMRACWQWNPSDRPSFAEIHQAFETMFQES
assayText: SDR assay, ABL1-N-HiBiT
statedConditions: ABL1-N-HiBiT qHTS; average maximal SDR response
Structures can show the parent of a compound that is named as a salt.
Answers are plain numbers.

Fill in SDR Ave Max Response for each of the 3 molecules listed.
1. Cc1ccccc1-n1c([C@H](C)Nc2nc(N)nc3[nH]cnc23)nc2cccc(C)c2c1=O [CAL-130 Hydrochloride]
2. Cc1ncc(NC(=O)c2ccc(CN3CCN(C)CC3)c(C(F)(F)F)c2)cc1Nc1nccc(-c2cccnc2)n1 [Flumatinib]
3. N[C@H]1CC[C@H](Nc2nc(Nc3ccc(C(=O)N4CCCCC4)cc3)c3ncn(-c4cccc(F)c4)c3n2)CC1 [Purfalcamine]

A:
1. -18.17
2. 74.04
3. 91.87

Q: So what does the record say about SDR Ave Max Response for N#Cc1cn([C@@H]2O[C@H](CO)[C@@H](O)[C@H]2O)c2ncnc(N)c12 [Toyocamycin] ?
A: 72.44
